Exercise: for every item that follows, state its recorded pKi.
target system: D(2) dopamine receptor (Homo sapiens)
Sequence (P14416 whole entry): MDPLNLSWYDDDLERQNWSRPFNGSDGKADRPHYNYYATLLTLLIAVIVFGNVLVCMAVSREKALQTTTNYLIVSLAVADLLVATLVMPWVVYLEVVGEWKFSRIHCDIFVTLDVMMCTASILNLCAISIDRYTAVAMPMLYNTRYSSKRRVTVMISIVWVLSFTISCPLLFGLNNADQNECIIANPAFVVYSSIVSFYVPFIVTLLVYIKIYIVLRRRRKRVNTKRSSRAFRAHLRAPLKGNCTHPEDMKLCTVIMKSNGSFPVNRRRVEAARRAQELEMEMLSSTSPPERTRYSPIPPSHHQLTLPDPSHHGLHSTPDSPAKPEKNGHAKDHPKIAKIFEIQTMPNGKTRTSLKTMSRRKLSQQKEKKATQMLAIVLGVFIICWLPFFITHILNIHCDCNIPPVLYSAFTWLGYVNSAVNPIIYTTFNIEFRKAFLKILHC
test method notes: Binding affinity was measured at cloned mammalian dopamine D2 receptor expressed in CHO-K1 cells (using [3H]U-86170)
Assay type: cell-based
Answers are plain numbers, as −log10 of the molar value.

Examples with their reported pKi follow.
CCCN[C@@H]1CCc2c(C(=O)OC)cccc2[C@@H]1C ... 5.63
CCCN[C@@H]1CCc2c(OC)cccc2[C@@H]1C ... 6.84
CCCN(CCC)[C@@H]1CCc2c(OS(=O)(=O)C(F)(F)F)cccc2[C@@H]1C ... 6.26

Each compound below has a reported value. Please supply its pKi.
1. CCCN[C@@H]1CCc2c(OS(=O)(=O)C(F)(F)F)cccc2[C@@H]1C
2. CCCN(CCC)[C@@H]1CCc2c(OC)cccc2[C@@H]1C

5.59
7.82

* * *

target system: 5-hydroxytryptamine receptor 1A (Rattus norvegicus, UniProt P19327)
Sequence (P19327 whole entry): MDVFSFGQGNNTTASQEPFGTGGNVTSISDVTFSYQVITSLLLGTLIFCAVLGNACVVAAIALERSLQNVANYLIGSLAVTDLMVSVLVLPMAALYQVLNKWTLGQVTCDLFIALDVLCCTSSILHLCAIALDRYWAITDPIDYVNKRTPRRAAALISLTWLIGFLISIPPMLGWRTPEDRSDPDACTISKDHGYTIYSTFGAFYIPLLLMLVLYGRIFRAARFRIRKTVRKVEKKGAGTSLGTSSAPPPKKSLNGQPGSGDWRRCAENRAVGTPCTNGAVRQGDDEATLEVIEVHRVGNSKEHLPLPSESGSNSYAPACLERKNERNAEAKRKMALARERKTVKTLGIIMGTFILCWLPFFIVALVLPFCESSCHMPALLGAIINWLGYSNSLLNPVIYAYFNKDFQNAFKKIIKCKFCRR
test method notes: Binding affinity was measured at 5-HT1A receptor in rat striatal membranes using [3H]8-OH-DPAT
Assay type: cell membranes, Striatum, Membrane
Exercise: for every item that follows, state its recorded pKi.
Give bare numbers, as −log10 of the molar value.

CCCN[C@@H]1CCc2c(C(N)=O)cccc2[C@@H]1C ... 5.17

# ---- query compound ----
Name the recorded pKi of the compound listed here: CCCN(CCC)[C@@H]1CCc2c(C#N)cccc2[C@@H]1C
5.30

* * *

Exercise: for every item that follows, state its recorded bioavailability.
test method notes: In vivo percent of absolute bioavailability obtained from blood plasma levels analyzed by means of GC/MS (dose 5 uM/kg i.v. and 40 uM/kg, p.o.)
Type: ADME, organism-based
condition description: rat, po
Numbers only, in %.

Examples with their reported bioavailability follow.
CCCN[C@@H]1CCc2c(OC)cccc2[C@@H]1C ... 1.6
CCCN(CCC)[C@@H]1CCc2c(OC)cccc2[C@@H]1C ... 3.7
CCCN[C@@H]1CCc2c(OS(=O)(=O)C(F)(F)F)cccc2[C@@H]1C ... 62.2

Name the recorded bioavailability of the compound listed here: CCCN(CCC)[C@@H]1CCc2c(OS(=O)(=O)C(F)(F)F)cccc2[C@@H]1C
9.4

* * *

Tested on: Rattus norvegicus
test method notes: In vivo 5-HIAA level was measured in killed rat limbic brain regions at a dose of 100 umol/kg, sc
Type: functional, Limbic system
Set-up: unit not given here
Exercise: for every item that follows, state its recorded Activity.
Give bare numbers.

Examples with their reported Activity follow.
CCCN[C@@H]1CCc2c(C#N)cccc2[C@@H]1C ... 100
CCCN[C@@H]1CCc2c(C(N)=O)cccc2[C@@H]1C ... 97
CCCN(CCC)[C@@H]1CCc2c(C(N)=O)cccc2[C@@H]1C ... 113

# ---- query compound ----
Name the recorded Activity of the compound listed here: CCCN(CCC)[C@@H]1CCc2c(C#N)cccc2[C@@H]1C
95

* * *

Exercise: for every item that follows, state its recorded Ki.
target system: D(4) dopamine receptor (Homo sapiens, UniProt P21917)
Sequence (P21917 whole entry): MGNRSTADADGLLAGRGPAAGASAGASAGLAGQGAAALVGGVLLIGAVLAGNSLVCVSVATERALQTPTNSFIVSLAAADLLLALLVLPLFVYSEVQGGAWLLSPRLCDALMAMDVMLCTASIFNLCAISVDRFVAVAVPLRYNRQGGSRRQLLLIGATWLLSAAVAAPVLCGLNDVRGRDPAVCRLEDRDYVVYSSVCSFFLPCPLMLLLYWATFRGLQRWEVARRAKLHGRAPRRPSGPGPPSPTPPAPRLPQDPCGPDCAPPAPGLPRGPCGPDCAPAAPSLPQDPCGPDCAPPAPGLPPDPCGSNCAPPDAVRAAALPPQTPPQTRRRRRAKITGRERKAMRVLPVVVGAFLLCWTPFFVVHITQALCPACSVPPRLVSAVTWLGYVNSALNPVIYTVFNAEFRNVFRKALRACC
test method notes: Binding affinity was measured at cloned mammalian dopamine D4 receptor expressed in CHO-K1 cells (using [3H]- spiperone)
Assay type: cell-based
Answers are plain numbers, in nM.

Each compound below has a reported value. Please supply its Ki.
1. CCCN(CCC)[C@@H]1CCc2c(OS(=O)(=O)C(F)(F)F)cccc2[C@@H]1C
2. CCCN[C@@H]1CCc2c(OS(=O)(=O)C(F)(F)F)cccc2[C@@H]1C
3. CCCN[C@@H]1CCc2c(C(=O)OC)cccc2[C@@H]1C

121
621
1590

* * *

Below are pKi values measured for D(3) dopamine receptor (Homo sapiens).
Numbers only, as −log10 of the molar value.

CCCN(CCC)[C@@H]1CCc2c(OC)cccc2[C@@H]1C ... 8.38

Each molecule below has a reported value. Please supply its pKi.
1. CCCN[C@@H]1CCc2c(C(=O)OC)cccc2[C@@H]1C
2. CCCN[C@@H]1CCc2c(OS(=O)(=O)C(F)(F)F)cccc2[C@@H]1C
3. CCCN(CCC)[C@@H]1CCc2c(OS(=O)(=O)C(F)(F)F)cccc2[C@@H]1C

6.60
6.77
7.40

* * *

target system: D(2) dopamine receptor (Rattus norvegicus, UniProt P61169)
Sequence (P61169 whole entry): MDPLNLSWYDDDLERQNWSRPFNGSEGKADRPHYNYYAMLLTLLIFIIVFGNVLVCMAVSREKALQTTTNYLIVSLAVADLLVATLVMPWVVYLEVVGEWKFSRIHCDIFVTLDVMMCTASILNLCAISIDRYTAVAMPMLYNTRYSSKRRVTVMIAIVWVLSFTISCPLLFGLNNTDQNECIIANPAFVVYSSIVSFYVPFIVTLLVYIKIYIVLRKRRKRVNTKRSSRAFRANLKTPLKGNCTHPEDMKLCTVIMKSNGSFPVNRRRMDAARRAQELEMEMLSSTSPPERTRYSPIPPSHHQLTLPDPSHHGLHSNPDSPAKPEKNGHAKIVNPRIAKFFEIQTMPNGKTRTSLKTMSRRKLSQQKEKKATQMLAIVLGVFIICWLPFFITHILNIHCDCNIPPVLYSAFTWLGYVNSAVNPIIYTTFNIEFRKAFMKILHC
test method notes: Binding affinity was measured from rat striatal membrane using [3H]-spiperone at D2 receptors
measure: pKi
One number for each entry, as −log10 of the molar value.

CCCN[C@@H]1CCc2c(C#N)cccc2[C@@H]1C ... 4.78

# ---- query compound ----
Report pKi from D(2) dopamine receptor (Rattus norvegicus, UniProt P61169) testing of CCCN(CCC)[C@@H]1CCc2c(C#N)cccc2[C@@H]1C
5.18

* * *

Test system: Rattus norvegicus
test method notes: In vivo DOPAC level was measured in killed rat striatal brain regions at a dose of 100 umol/kg, sc
Assay type: functional
Set-up: unit not given here
Exercise: for every item that follows, state its recorded Activity.
Answers are plain numbers.

CCCN(CCC)[C@@H]1CCc2c(C(N)=O)cccc2[C@@H]1C ... 135

Name the recorded Activity of the molecule listed here: CCCN[C@@H]1CCc2c(C(N)=O)cccc2[C@@H]1C
109

* * *

target system: UniProtKB P08908
Sequence (P08908 whole entry): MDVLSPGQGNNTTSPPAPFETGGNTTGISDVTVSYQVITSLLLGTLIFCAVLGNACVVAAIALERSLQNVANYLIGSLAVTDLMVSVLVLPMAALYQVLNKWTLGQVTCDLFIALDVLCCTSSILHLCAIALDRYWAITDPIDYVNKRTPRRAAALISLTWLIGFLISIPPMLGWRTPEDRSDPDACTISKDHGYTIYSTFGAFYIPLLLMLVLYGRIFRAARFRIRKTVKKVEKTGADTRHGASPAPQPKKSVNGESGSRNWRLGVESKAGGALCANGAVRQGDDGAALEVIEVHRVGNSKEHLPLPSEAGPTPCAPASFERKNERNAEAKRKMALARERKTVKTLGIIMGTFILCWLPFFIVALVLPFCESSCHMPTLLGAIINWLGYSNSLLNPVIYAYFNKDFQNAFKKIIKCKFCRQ
test method notes: Binding affinity was measured at cloned mammalian 5-HT1A receptor expressed in CHO-K1 cells (using [3H]8-OH-DPAT )
Type: cell-based
measure: Ki

Name the recorded Ki of the compound listed here: CCCN[C@@H]1CCc2c(C#N)cccc2[C@@H]1C
> 1790 nM

* * *

test method notes: Half-life was estimated from the elimination phase of the oral [C] vs time curves in 4 rats
Format: ADME, organism-based
condition description: rat, in vivo
Exercise: for every item that follows, state its recorded half-life.
Give bare numbers, in h.

Examples with their reported half-life follow.
CCCN[C@@H]1CCc2c(OS(=O)(=O)C(F)(F)F)cccc2[C@@H]1C ... 6
CCCN[C@@H]1CCc2c(OC)cccc2[C@@H]1C ... 1
CCCN(CCC)[C@@H]1CCc2c(OC)cccc2[C@@H]1C ... 2.5

# ---- query compound ----
Name the recorded half-life of the compound listed here: CCCN(CCC)[C@@H]1CCc2c(OS(=O)(=O)C(F)(F)F)cccc2[C@@H]1C
6
